Tested on: P388 leukemia ip, CD2F1 mice, survival T/C
Assay: NCI In Vivo Anticancer Drug Screen. Data for tumor model P388 Leukemia (intraperitoneal) in CD2F1 (CDF1) mice
Conditions: endpoint: median survival time; dose: 50.0 mg/kg/injection; schedule: Q04DX003 (ip); vehicle: Klucel (hydroxypropylcellulose) (HPC); higher = longer survival
Inconclusive results and toxic doses are left out.
Readout type: T/C

Compound: CC1(C(=O)O)CCC2(C)CCC3(C)C(=CC(=O)C4C5(C)CCC(O)C(C)(C)C5CCC43C)C2C1 (stereo not given)
Assayed target: P388 leukemia ip, CD2F1 mice, survival T/C
Data value: 105 % of control
//
Compound: Cc1cc(C)nc(N/N=C/c2c(Cl)cccc2Cl)n1
Assayed target: P388 leukemia ip, CD2F1 mice, survival T/C
Data value: 99 % of control
//
Compound: N=C(N)SCCN1C(=O)NC(c2ccccc2)(c2ccccc2)C1=O
Assayed target: P388 leukemia ip, CD2F1 mice, survival T/C
Data value: 114 % of control
//
Compound: N#CCCSC(=S)C(C#N)C(=N)c1ccccc1 (stereo not given)
Assayed target: P388 leukemia ip, CD2F1 mice, survival T/C
Data value: 110 % of control

For record CNC1CCCc2c(O)cccc21 (stereo not given) the listed T/C is 99 % of control

---

We begin with a simple list: items and their reported T/C.
Test system: P388 leukemia ip, CD2F1 mice, survival T/C
Assay: NCI In Vivo Anticancer Drug Screen. Data for tumor model P388 Leukemia (intraperitoneal) in CD2F1 (CDF1) mice
Settings: endpoint: median survival time; dose: 120.0 mg/kg/injection; schedule: Q01DX005 (ip); vehicle: saline; higher = longer survival
Protocol: The antitumor activity of compounds was measured in mice bearing transplantable tumors. Survival or tumor size were measured and the results are expressed as the measurement made in the treated group (T) divided by the measurement made in the vehicle treated control group (C). The tumor model used in this assay is P388 Leukemia (intraperitoneal) in CD2F1 (CDF1) mice
Toxic doses and inconclusive results are not listed.

// assay P388 leukemia ip, CD2F1 mice, survival T/C, entry CC(C)N[C@@H]1CCC[C@@H]2c3ccccc3[C@@]21O , T/C value = 95 % of control

// assay P388 leukemia ip, CD2F1 mice, survival T/C, entry CC(C(=O)c1ccccc1)c1nc2nnc(N)n2[nH]c1=O (configuration not stated) , T/C value = 100 % of control

// assay P388 leukemia ip, CD2F1 mice, survival T/C, entry CCCCCc1onc(-c2noc(CCCCC)c2C)c1C , T/C value = 99 % of control

// assay P388 leukemia ip, CD2F1 mice, survival T/C, entry c1ccc2c(SCCCCSc3c4ccccc4nc4ccccc34)c3ccccc3nc2c1 , T/C value = 98 % of control

// assay P388 leukemia ip, CD2F1 mice, survival T/C, entry C#CCC(C(=O)OC)N(CC)CC (configuration not stated) , T/C value = 111 % of control

// assay P388 leukemia ip, CD2F1 mice, survival T/C, entry CS(=O)(=O)C(c1nc2nnc(N)n2[nH]c1=O)c1nc2nnc(N)n2[nH]c1=O , T/C value = 105 % of control

// assay P388 leukemia ip, CD2F1 mice, survival T/C, entry N=c1ccccn1CCO , T/C value = 99 % of control

---

System: P388 leukemia ip, CD2F1 mice, survival T/C
Assay: NCI In Vivo Anticancer Drug Screen. Data for tumor model P388 Leukemia (intraperitoneal) in CD2F1 (CDF1) mice
Settings: endpoint: median survival time; dose: 25.0 mg/kg/injection; schedule: Q01DX005 (ip); vehicle: Klucel (hydroxypropylcellulose) (HPC); higher = longer survival
Experimental: The antitumor activity of compounds was measured in mice bearing transplantable tumors. Survival or tumor size were measured and the results are expressed as the measurement made in the treated group (T) divided by the measurement made in the vehicle treated control group (C). The tumor model used in this assay is P388 Leukemia (intraperitoneal) in CD2F1 (CDF1) mice
Toxic doses and inconclusive results are not listed.
We begin with a simple list: items and their reported T/C.

Molecule: CCc1nc(N)nc(N)c1-c1ccc([N+](C)(C)C)cc1
Data value: 103 % of control
--
Molecule: O=C1c2ccccc2C(=O)C2C1C1(c3ccccc3)OC2(c2ccccc2)c2ccccc21 (centres undefined)
Data value: 101 % of control
--
Molecule: Cc1ccc(N=Nc2c(-c3cccs3)nn(C(N)=S)c2C(F)(F)F)cc1
Data value: 98 % of control
--
Molecule: Cc1ccc(S(=O)(=O)OI(C#CC(C)(C)C)c2ccccc2)cc1
Data value: 102 % of control
--
Molecule: Cc1cc2nc3c(C4OCC(O)C4O)nn(-c4ccc(F)cc4)c3nc2cc1C (centres undefined)
Data value: 90 % of control

// assay P388 leukemia ip, CD2F1 mice, survival T/C, entry CCCCOc1ccc2nc(C)cc(N/N=C/c3ccc(OC)c4ccccc34)c2c1 , T/C value = 94 % of control

// assay P388 leukemia ip, CD2F1 mice, survival T/C, entry CC(C)CCC[C@@H](C)[C@H]1CC[C@H]2[C@@H]3CC[C@H]4C[C@H](N)CC[C@]4(C)[C@H]3CC[C@]12C , T/C value = 93 % of control

// assay P388 leukemia ip, CD2F1 mice, survival T/C, entry CCCCCCCCCCNCCSSCCNC(C)=O , T/C value = 102 % of control

// assay P388 leukemia ip, CD2F1 mice, survival T/C, entry FC(F)(F)C1(C(F)(F)F)OS2(F)(F)(OC(C(F)(F)F)(C(F)(F)F)c3ccccc32)c2ccccc21 , T/C value = 92 % of control

// assay P388 leukemia ip, CD2F1 mice, survival T/C, entry CCn1c(-c2ccc(OC(C)=O)cc2)c(C)c2cc(OC(C)=O)ccc21 , T/C value = 100 % of control

// assay P388 leukemia ip, CD2F1 mice, survival T/C, entry Cc1cn(CCCOc2c3occc3cc3ccc(=O)oc23)c(=O)[nH]c1=O , T/C value = 96 % of control

// assay P388 leukemia ip, CD2F1 mice, survival T/C, entry C[c-]1[c-][c-][c-][c-]1.[C-]#[O+].[C-]#[O+].[C-]#[O+].[Mn] , T/C value = 95 % of control

---

Tested on: P388 leukemia ip, CD2F1 mice, survival T/C
Assay: NCI In Vivo Anticancer Drug Screen. Data for tumor model P388 Leukemia (intraperitoneal) in CD2F1 (CDF1) mice
Conditions: endpoint: median survival time; dose: 25.0 mg/kg/injection; schedule: Q01DX005 (ip); vehicle: distilled water + Tween-80; higher = longer survival
Inconclusive results and toxic doses are left out.
We begin with a simple list: items and their reported T/C.

Compound: Cc1ccc(S(=O)(=O)N/N=C/c2ccoc2)cc1
Assayed target: P388 leukemia ip, CD2F1 mice, survival T/C
T/C: 102 % of control

Compound: C=CC(COC(=O)C(Cl)(Cl)Cl)NC(=O)C(Cl)(Cl)Cl (stereo not given)
Assayed target: P388 leukemia ip, CD2F1 mice, survival T/C
T/C: 100 % of control

Compound: CNC(=O)OCc1ncn(-c2ccccc2)c1COC(=O)NC
Assayed target: P388 leukemia ip, CD2F1 mice, survival T/C
T/C: 95 % of control

Compound: CNC(=O)OCc1nc(SC)n(-c2ccccc2)c1COC(=O)NC
Assayed target: P388 leukemia ip, CD2F1 mice, survival T/C
T/C: 101 % of control

Now consider a different compound.
// assay P388 leukemia ip, CD2F1 mice, survival T/C, entry Cc1ccc(S(=O)(=O)N/N=C/c2ccc(Cl)cc2O)cc1 , T/C value = 99 % of control

---

We begin with a simple list: items and their reported T/C.
Test system: P388 leukemia ip, CD2F1 mice, survival T/C
Assay: NCI In Vivo Anticancer Drug Screen. Data for tumor model P388 Leukemia (intraperitoneal) in CD2F1 (CDF1) mice
Details: endpoint: median survival time; dose: 25.0 mg/kg/injection; schedule: Q04DX002 (ip); vehicle: saline with Tween-80; higher = longer survival
Inconclusive results and toxic doses are left out.

Check out these entries, answers already filled in.
Compound: C=C(c1ccccc1)C1(O)CCCCC1N(C)C (stereo not given)
T/C: 102 % of control
//
Compound: C=C1C(=O)OC2C1C(OC(=O)/C(C)=C/C)CC1(CO1)C1C(O)C3OC3(C)C21O (stereo not given)
T/C: 117 % of control
//
Compound: Cc1cccc(C)c1NC(=O)C1C(=O)C(=O)N(c2c(C)cccc2C)C1=O (stereo not given)
T/C: 100 % of control
//
Compound: COc1cc2c(c(OC)c1OC)-c1cc3c(cc1CC(COC(C)=O)C(COC(C)=O)C2)OCO3 (stereo not given)
T/C: 100 % of control

Now consider a different compound.
For record NC(=S)n1nc(-c2ccccc2)c(N=Nc2ccc([N+](=O)[O-])cc2)c1-c1ccccc1 the listed T/C is 100 % of control
